# experiment: NCI Yeast Anticancer Drug Screen. Data for the mlh1 rad18 strain (AID 175)
# experimental_context: S. cerevisiae mlh1 rad18 strain growth inhibition, hits give high values; at 50.0 µM unless noted
This is part of a sample that, as a whole, favours compounds with a hit. Of some 79,000 tested, about 15% had one in any assay.
# growth inhibition per record follows
I only need the number, in %, no unit after it.

| compound | metric | measurement_unit | recorded_value |
| --- | --- | --- | --- |
| Cc1ccccc1C(=O)c1cccc2cccc(C(=O)c3ccccc3C)c12 | growth inhibition | % | 1.15 |
| FC(F)(F)c1ccc2nc(NCc3ccccc3)c(-c3ccccc3)nc2c1 | growth inhibition | % | 35.8 |
| O=C(O)CCC(=O)CCC(=O)O | growth inhibition | % | 7.2 |

growth inhibition for Cc1ccc(S(=O)(=O)/C=C(/SC#N)C2CCCCC2)cc1 is 79.7

Documented growth inhibition of Clc1ccccc1Br : -8.3

In plain terms, Nc1ccc(S(=O)(=O)CCCl)cc1 has a documented growth inhibition of 11.6

For reference, reported growth inhibition for O=C1/C(=C/c2cccc(Cl)c2)CCCc2ccccc21 stands at 44.4

Value of growth inhibition reported for the compound Clc1ccccc1/C=N\N=C\c1ccco1 is 14.4

Given item COc1cc(C2c3cc4c(cc3[C@H](OCCN(C)C)[C@@H]3COC(=O)C23)OCO4)cc(OC)c1O (some centres not stated) , the value recorded as its growth inhibition is 82.6
